# maps each entry to its pEC50
molecular target: Neuronal acetylcholine receptor; alpha4/beta2 (Homo sapiens, UniProt P17787+P43681); assay: Stimulation of cation efflux in human nAChR alpha4-beta2 expressing K177 cells
Sequence (P17787 whole entry): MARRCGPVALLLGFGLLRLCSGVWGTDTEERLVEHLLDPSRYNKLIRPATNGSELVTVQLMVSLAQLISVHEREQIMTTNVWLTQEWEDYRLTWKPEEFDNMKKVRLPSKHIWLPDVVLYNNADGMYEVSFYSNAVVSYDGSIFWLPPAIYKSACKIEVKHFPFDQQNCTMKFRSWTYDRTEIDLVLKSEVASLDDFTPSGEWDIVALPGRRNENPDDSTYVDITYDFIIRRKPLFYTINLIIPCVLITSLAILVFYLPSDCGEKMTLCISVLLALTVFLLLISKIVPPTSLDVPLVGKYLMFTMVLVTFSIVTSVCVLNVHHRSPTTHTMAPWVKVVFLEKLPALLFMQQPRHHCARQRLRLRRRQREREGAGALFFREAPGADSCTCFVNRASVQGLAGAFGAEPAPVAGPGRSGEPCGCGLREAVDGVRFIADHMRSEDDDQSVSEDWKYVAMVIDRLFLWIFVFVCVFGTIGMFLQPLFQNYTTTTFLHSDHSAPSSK
Sequence (P43681 whole entry): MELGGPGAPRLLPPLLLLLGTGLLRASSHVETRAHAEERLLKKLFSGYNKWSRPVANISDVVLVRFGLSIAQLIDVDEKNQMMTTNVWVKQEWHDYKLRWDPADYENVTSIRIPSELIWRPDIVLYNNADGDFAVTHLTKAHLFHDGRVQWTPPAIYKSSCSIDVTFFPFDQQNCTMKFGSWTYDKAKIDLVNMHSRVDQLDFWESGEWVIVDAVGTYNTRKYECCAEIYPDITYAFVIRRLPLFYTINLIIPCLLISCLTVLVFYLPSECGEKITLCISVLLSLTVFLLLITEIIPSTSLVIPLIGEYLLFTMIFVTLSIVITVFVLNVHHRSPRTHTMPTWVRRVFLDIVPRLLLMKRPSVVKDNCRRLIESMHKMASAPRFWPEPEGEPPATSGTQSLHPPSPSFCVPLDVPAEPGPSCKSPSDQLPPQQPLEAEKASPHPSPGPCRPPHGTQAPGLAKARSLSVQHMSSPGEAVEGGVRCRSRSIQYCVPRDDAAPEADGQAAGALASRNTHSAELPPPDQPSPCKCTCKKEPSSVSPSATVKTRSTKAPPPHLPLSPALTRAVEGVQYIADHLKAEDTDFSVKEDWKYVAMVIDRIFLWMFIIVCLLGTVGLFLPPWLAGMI
// field semantics: pEC50 = negative decimal log of concentration (mol/L)

* CN1CCC[C@H]1COc1ccc(Br)nc1 | 5.59
* CN1CCC[C@H]1COc1cncc(Br)c1 | 5.23
* Cc1ncccc1OC[C@@H]1CCCN1C | 5.32

Please examine the following record next.
# input compound: CN1CCC[C@H]1COc1ccc(Cl)nc1 ; wanted: its pEC50 5.85

* * *

molecular target: Neuronal acetylcholine receptor; alpha4/beta2 (Homo sapiens, UniProt P17787+P43681); assay: Maximal efficacy relative to 100 uM nicotine in human nAChR alpha4-beta2 expressing K177 cells; type: cell-based
measurement name: Max
Please answer in the form of a number followed by its unit of measurement.

- CCCCc1cncc(OC[C@@H]2CCCN2C)c1: 14%

Form field: reported Max of CN1CCC[C@H]1COc1cccnc1Br 12.3%

Please report the recorded Max for Cc1ccncc1OC[C@@H]1CCCN1C . 73.9%

// returns reported Max for input CN1CCC[C@H]1COc1cncc(Br)c1 41.8%

// returns reported Max for input Cc1cncc(OC[C@@H]2CCCN2C)c1 77%

Item CN1CCC[C@H]1COc1ccc(Br)nc1 has what recorded Max? 42.5%

Reported Max, molecule CCc1cncc(OC[C@@H]2CCCN2C)c1 : ____ 33.7%

What Max value was documented for this molecule, CN1CCC[C@H]1COc1ccc(Cl)nc1 ? 108%

Quick one: Max of Cc1ncccc1OC[C@@H]1CCCN1C ? 26.7%

Any idea what Max was measured for CN1CCC[C@H]1COc1cnccc1Br ? 14.1%

I am curious: what Max value has been reported for CCCc1cncc(OC[C@@H]2CCCN2C)c1 ? 13%

Would you kindly share the measured Max for Cc1ccc(OC[C@@H]2CCCN2C)cn1 ? 54.4%

Recorded Max for CN1CCC[C@H]1COc1cccnc1 , please? 100%
